Test: in vivo
Settings: other: buccal, 60 mg
reportedProperty: bioavailability

### Prompt Provide bioavailability value for the following molecule: O=C(c1ccc(OCCN2CCCCC2)cc1)c1c(-c2ccc(O)cc2)sc2cc(O)ccc12
### Response ≥ 4%
